- Tested on: L. donovani HU3 strain in mouse peritoneal macrophages
- test description: Assay for proliferation of Leishmania parasites in infected mouse peritoneal macrophages (SybrGreen staining, high-content imaging, 5 days)
- Assay type: cell-based, Leishmania donovani
- particulars: Leishmania donovani, Peritoneal macrophage, L. donovani in mouse peritoneal macrophages, inhibition of proliferation; read-out: L. donovani Macrophage EC50
pEC50: −log10 of the molar value.
Label NO if pEC50 falls below 5; label YES in every other case.

Solved cases (6 shown):
* CC(C)OC(=O)Nc1cnc2nc(-c3cc(NC(=O)N4CCC5(C4)CC5(F)F)ccc3Cl)cn2c1 (stereo not drawn) | YES
* Cc1nc(C)c(C(=O)Nc2ccc(F)c(-c3cn4cc(NC(=O)C5CCCCN5C)cnc4n3)c2)o1 (stereo not drawn) | NO
* CC(C)OC(=O)Nc1cnc2nc(-c3cccc(NC(=O)c4cnccn4)c3)cn2c1 | YES
* Cc1nc(C)c(C(=O)Nc2ccc(F)c(-c3cn4cc(NC(=O)[C@](C)(O)C(F)(F)F)cnc4n3)c2)o1 | YES
* O=C(Nc1ccc(F)c(-c2cn3cc(-c4ccccc4Cl)cnc3n2)c1)N1CCCC1 | YES
* Cn1cnc(-c2cnc3nc(-c4cc(NC(=O)N5CCCC5)ccc4F)cn3c2)c1 | YES

Threshold query (pEC50 >= 5) on `Cc1ncoc1C(=O)Nc1ccc(Cl)c(-c2cn3cc(NC(=O)OC(C)C)cnc3n2)c1`
YES

Identify whether the reported pEC50 of the following compound is 5 or greater: `O=C(Nc1ccc(Cl)c(-c2cn3cc(Cl)cnc3n2)c1)c1ccco1`
NO

Could you tell me if the measured pEC50 of `Cc1nc(C)c(C(=O)Nc2ccc(F)c(-c3cn4cc(C5CCC5)cnc4n3)c2)o1` reaches 5 or more?
YES

Hello, I need to know if `CC(C)OC(=O)Nc1cnc2nc(-c3cc(NC(=O)NC4CC4)ccc3Cl)cn2c1` has measured pEC50 not below 5. Thanks!
NO

Quick check: does `CC(C)OC(=O)Nc1cnc2nc(-c3cc(NC(=O)C4CC4)ccc3F)cn2c1` have pEC50 greater than or equal to 5?
NO

I'd appreciate it if you could say whether `Cc1nc(C)c(C(=O)Nc2ccc(F)c(-c3cn4cc(NC(=O)c5ccc(CN(C)C)cn5)cnc4n3)c2)o1` has pEC50 at least equal to 5.
YES

Reported pEC50 reaches at least 5 for `O=C(Nc1ccc(F)c(-c2cn3cc(Cl)cnc3n2)c1)N1CC(F)(F)C1` ?
YES

###

- Test system: L. donovani HU3 strain in mouse peritoneal macrophages
- test description: Assay for proliferation of Leishmania parasites in infected mouse peritoneal macrophages (SybrGreen staining, high-content imaging, 5 days)
- Assay type: cell-based, Leishmania donovani
- particulars: Leishmania donovani, Peritoneal macrophage, L. donovani in mouse peritoneal macrophages, inhibition of proliferation; read-out: L. donovani Macrophage EC50
pEC50: −log10 of the molar value.
experimental endpoint: pEC50

• CC(C)OC(=O)Nc1cnc2nc(-c3cc(NC(=O)N4CCC[C@H]4C(N)=O)ccc3Cl)cn2c1 = < 4.30
• Cc1nc(C)c(C(=O)Nc2cnc3nc(-c4cc(NC(=O)N5CCCC5)ccc4F)cn3c2)o1 = < 4.30
• CC(C)OC(=O)Nc1cnc2nc(-c3cc(NC(=O)N4CC(C#N)C4)ccc3F)cn2c1 = < 4.34

Dear colleague, I am looking for the recorded pEC50 of the following compound: `CC(=O)N[C@@H]1CCN(C(=O)Nc2ccc(Cl)c(-c3cn4cc(NC(=O)OC(C)C)cnc4n3)c2)C1`
< 4.30

Fill in: pEC50 of CC(C)OC(=O)Nc1cnc2nc(-c3cc(NC(=O)C(C)N)ccc3F)cn2c1 (centres unmarked) is ___
< 4.36

###

- System: Trypanosoma cruzi amastigotes (Tulahuen strain expressing Lac-Z) cultured in 3T3 fibroblast cells
- test description: microbe, parasite or virus in culture
- Assay type: cell-based
- particulars: Trypanosoma cruzi, TULAHUEN, Fibroblast, T. cruzi amastigotes in 3T3 fibroblast cells; read-out: T cruzi EC50
experimental endpoint: EC50

* CCCNc1cnc2nc(-c3cc(NC(=O)N4CCCC4)ccc3F)cn2c1 | 0.478 µM
* Cc1nc(C(=O)Nc2ccc(Cl)c(-c3cn4cc(NC(=O)OC(C)C)cnc4n3)c2)no1 | > 20 µM
* Cc1nc(C)c(C(=O)Nc2ccc(F)c(-c3cn4cc(NCC(C)(C)C)cnc4n3)c2)o1 | 0.146 µM
* CC(C)OC(=O)Nc1cnc2nc(-c3cc(NC4=NCCO4)ccc3F)cn2c1 | 9.42 µM

Which EC50 value belongs to `Cc1nc(C)c(C(=O)Nc2ccc(F)c(-c3cn4cc(NC5=N[C@H]6CCCC[C@@H]6O5)cnc4n3)c2)o1` ?
2.61 µM

Returns the measured EC50 for the input compound. Input: `COc1cccnc1Nc1ccc(F)c(-c2cn3cc(NC(=O)OC(C)C)cnc3n2)c1`
1.34 µM

May I ask what EC50 has been recorded for `Cc1nc(C)c(C(=O)Nc2ccc(F)c(-c3cn4cc(C5=CCCCO5)cnc4n3)c2)o1` ?
0.084 µM

Which value of EC50 has been reported for `Cc1nc(C)c(C(=O)Nc2ccc(F)c(-c3cn4cc(-c5ccc(N6CCN(C(C)C)CC6)cc5)cnc4n3)c2)o1` in the records?
1.39 µM

Quick one: EC50 of `O=C(Nc1ccc(F)c(-c2cn3cc(NCCC(F)(F)F)cnc3n2)c1)N1CCCC1` ?
5.52 µM

What does the data say about its EC50? Entry: `Cc1nc(C)c(C(=O)Nc2ccc(F)c(-c3cn4cc(Nc5ncccc5C(F)(F)F)cnc4n3)c2)o1`
0.036 µM

Fill blank: measured EC50 of the compound `CC(C)(CO)c1nc(Nc2ccc(F)c(-c3cn4cc(C5CC5)cnc4n3)c2)no1` is ____.
3.74 µM

Which EC50 value belongs to `NNC(=O)Nc1cnc2nc(-c3cc(NC(=O)N4CCCC4)ccc3F)cn2c1` ?
9.23 µM

Would you kindly share the measured EC50 for `O=C(Nc1ccc(F)c(-c2cn3cc(C4CC4)cnc3n2)c1)[C@H]1CC[C@@H](O)CC1` ?
2.55 µM

For `Cc1nc(C)c(C(=O)Nc2ccc(F)c(-c3cn4cc(C5CCCC5)cnc4n3)c2)o1` , what is its reported EC50?
0.193 µM

###

- System: Trypanosoma brucei Lister 427 strain, bloodstream form
- test description: Assay for proliferation of kinetoplastid parasite Trypanosoma brucei (Cell Titer Glo, 48 hours)
- Format: cell-based
- particulars: Trypanosoma brucei, T. brucei Lister 427 bloodstream form; read-out: T. brucei EC50
experimental endpoint: pEC50
For clarity, pEC50 is expressed as the negative log10 of concentration in mol/L.

* Cc1nc(C)c(C(=O)Nc2ccc(F)c(-c3cn4cc(-c5ccc(F)cn5)cnc4n3)c2)o1 [Compound 431] | 6.83
* CC(C)OC(=O)Nc1cnc2nc(-c3cc(NCC(=O)N4CCCC4)ccc3F)cn2c1 [Compound 560] | 5.25
* Cc1nc(C)c(C(=O)Nc2ccc(F)c(-c3cn4cc(-c5ccnn5C(C)C)cnc4n3)c2)o1 [Compound 390] | 7.27

The record that follows has no pEC50 shown yet.
Short answer please: pEC50, Trypanosoma brucei Lister 427 strain, bloodstream form, entry Cc1cccc(-c2cnc3nc(-c4cc(NC(=O)N5CCCC5)ccc4F)cn3c2)n1 [Compound 455]
6.87

###

- Test system: Trypanosoma cruzi amastigotes (Tulahuen strain expressing Lac-Z) cultured in 3T3 fibroblast cells
- test description: microbe, parasite or virus in culture
- Format: cell-based
- particulars: Trypanosoma cruzi, TULAHUEN, Fibroblast, T. cruzi amastigotes in 3T3 fibroblast cells; read-out: T cruzi EC50
In this section we review reported EC50 values for a set of compounds.
Your answer should be a plain number; it is taken to be in µM.

# annotated cases, reported EC50 shown
* Cc1nc(C)c(C(=O)Nc2ccc(F)c(-c3cn4cc(C5=CCN(Cc6ccccc6)CC5)cnc4n3)c2)o1 | 0.047
* CNc1ccc(-c2cnc3nc(-c4cc(NC(=O)c5oc(C)nc5C)ccc4F)cn3c2)cc1 | 0.048
* Cc1nc(C)c(C(=O)Nc2ccc(F)c(-c3cn4cc(C#CCCN5CCCC(O)C5)cnc4n3)c2)o1 (stereo not drawn) | 7.18

Record request: EC50 value, item CC(C)OC(=O)Nc1cnc2nc(-c3cc(NC4=NCC(C)O4)ccc3F)cn2c1 (stereo not drawn)
10.5

Any idea what its EC50 is? The compound is Cc1nc(C)c(C(=O)Nc2ccc(F)c(-c3cn4cc(NC5=NCC(C)O5)cnc4n3)c2)o1 (stereo not drawn)
10.7

Suppose we examine the compound `Cc1ccc(-c2cnc3nc(-c4cc(NC(=O)c5oc(C)nc5C)ccc4F)cn3c2)nc1` ; what EC50 value has been reported?
0.014

###

# EC50 annotations
- System: Trypanosoma cruzi amastigotes (Tulahuen strain expressing Lac-Z) cultured in 3T3 fibroblast cells
- test description: microbe, parasite or virus in culture
- Assay type: cell-based
- particulars: Trypanosoma cruzi, TULAHUEN, Fibroblast, T. cruzi amastigotes in 3T3 fibroblast cells; read-out: T cruzi EC50

* Cc1nc(C)c(C(=O)Nc2ccc(F)c(-c3cn4cc(C5CCN(CCO)CC5)cnc4n3)c2)o1 [Compound 541] | > 20 µM

// lookup EC50 for Cc1nc(C)c(C(=O)N(C)c2ccc(F)c(-c3cn4cc(NC(C)C)cnc4n3)c2)o1 [Compound 557]
> 20 µM

Please look up its EC50: Cc1nc(C)c(C(=O)Nc2ccc(Cl)c(-c3cn4cc(N5CCOC5=O)cnc4n3)c2)o1 [Compound 520]
> 20 µM
